Reference source: the supplement of paper PMC8047044

Tested on: Neuro-2a
measurement_description: neurite formation score, plate-normalized to DMSO control mean 5.04 (score (0-8 scale)); higher = more or longer neurites
condition_info: 1 µM
So I've got a bunch of compounds here, and I need their neurite formation score values.

## Input Recall and state the measured neurite formation score for c1cc(-c2cnn3cc(-c4ccc(OCCN5CCCCC5)cc4)cnc23)ccn1 [Dorsomorphin 2HCl] .
## Output 4.96

## Input Recall and state the measured neurite formation score for "O=C(NOC[C@H](O)CO)c1ccc(F)c(F)c1Nc1ccc(I)cc1F" .
## Output 4.91

## Input Recall and state the measured neurite formation score for "CN1CCN(c2ccc(OC(F)(F)F)c(Nc3ncc4c(n3)-c3c(c(C(N)=O)nn3CCO)CC4)c2)CC1" .
## Output 4.88

## Input Recall and state the measured neurite formation score for "c1nc2c(NC3CCCCC3)nc(Nc3ccc(N4CCOCC4)cc3)nc2[nH]1" .
## Output 5.02

## Input Recall and state the measured neurite formation score for "COc1cc2ncnc(Nc3ccc(O)cc3)c2cc1OC" .
## Output 5.02

---

So I've got a bunch of compounds here, and I need their neurite formation score values.
Test system: Neuro-2a
measurement_description: neurite formation score, plate-normalized to DMSO control mean 5.04 (score (0-8 scale)); higher = more or longer neurites
condition_info: 1 µM
// no unit, no text: just the number

## Input Report value only: neurite formation score, Neuro-2a, "COc1cc2ncnc(Sc3nnc(C)s3)c2cc1OC"
## Output 4.96

## Input Report value only: neurite formation score, Neuro-2a, CC(=O)Nc1cccc(-n2c(=O)n(C3CC3)c(=O)c3c(Nc4ccc(I)cc4F)n(C)c(=O)c(C)c32)c1 [Trametinib DMSO solvate]
## Output 5.02

## Input Report value only: neurite formation score, Neuro-2a, N#CC[C@H](C1CCCC1)n1cc(-c2ncnc3[nH]ccc23)cn1 [Ruxolitinib phosphate]
## Output 5.02

## Input Report value only: neurite formation score, Neuro-2a, CCN(CC)CCCC(C)Nc1nc(C)cc(Nc2ccc3nc(C)cc(N)c3c2)n1 (stereo unspecified)
## Output 4.91

## Input Report value only: neurite formation score, Neuro-2a, "CCN1C(=CC(C)=O)Sc2ccc(OC)cc21"
## Output 4.96

## Input Report value only: neurite formation score, Neuro-2a, "CNC(=O)c1ccccc1Nc1cc(Nc2ccc(N3CCOCC3)cc2OC)ncc1C(F)(F)F"
## Output 5.02

---

System: Neuro-2a
measurement_description: neurite formation score, plate-normalized to DMSO control mean 5.04 (score (0-8 scale)); higher = more or longer neurites
condition_info: 0.1 µM
value_kind: neurite formation score
// no unit, no text: just the number

## Input Recall and state the measured neurite formation score for "Oc1cccc(-c2nc(N3CCOCC3)c3oc4ncccc4c3n2)c1" .
## Output 4.04

## Input Recall and state the measured neurite formation score for "CCc1ccc(/C=C2/SC(=S)NC2=O)cc1" .
## Output 5.04

## Input Recall and state the measured neurite formation score for "O=C(NCCO)c1cccc(-c2cc(Nc3ccc(OC(F)(F)F)cc3)ncn2)c1" .
## Output 4.92

## Input Recall and state the measured neurite formation score for "S=C(NCc1ccc2c(c1)OCO2)N1CCN(c2ncnc3c2oc2ccccc23)CC1" .
## Output 4.92

## Input Recall and state the measured neurite formation score for "N#CC[C@H](C1CCCC1)n1cc(-c2ncnc3[nH]ccc23)cn1" .
## Output 5.04

## Input Recall and state the measured neurite formation score for Cc1cc(Nc2cc(N3CCN(C)CC3)nc(/C=C/c3ccccc3)n2)n[nH]1 [ENMD-2076 L-(+)-Tartaric acid] .
## Output 4.76

## Input Recall and state the measured neurite formation score for "CC(C)(C)n1nc(-c2ccc(Cl)cc2)c2c(N)ncnc21" .
## Output 3.88

## Input Recall and state the measured neurite formation score for "N#CC(=C(/N)Sc1ccccc1N)/C(C#N)=C(\N)Sc1ccccc1N" .
## Output 5.71

## Input Recall and state the measured neurite formation score for "N#Cc1c(NC(=O)c2cccc3ccccc23)sc2c1CCCC2" .
## Output 0.751

## Input Recall and state the measured neurite formation score for COc1cc2c(c(OC)c1OC)-c1c(cc3c(c1OC)OCO3)CC(C)C(C)C2 (centres undefined) .
## Output 5.08

## Input Recall and state the measured neurite formation score for "Cc1c(NC(=O)OC[C@@H]2COCCN2)cn2ncnc(Nc3ccc4c(cnn4Cc4cccc(F)c4)c3)c12" .
## Output 3.71

## Input Recall and state the measured neurite formation score for "Cc1ccc(S(=O)(=O)/C=C/C#N)cc1" .
## Output 2.42

## Input Recall and state the measured neurite formation score for COc1ccc(S(=O)(=O)N(CCO)c2ccccc2CN(C)C/C=C/c2ccc(Cl)cc2)cc1 [KN-93 Phosphate] .
## Output 4.42

## Input Recall and state the measured neurite formation score for "O=c1cc(-c2cccc3c2Sc2ccccc2S3)oc(N2CCOCC2)c1" .
## Output 1.92

## Input Recall and state the measured neurite formation score for Cc1cc(C(C)Nc2ccccc2)c2nc(N3CCOCC3)cc(=O)n2c1 (centres undefined) .
## Output 3.76

## Input Recall and state the measured neurite formation score for "C[C@@H](Oc1cc(-n2cnc3ccc(CN4CCN(C)CC4)cc32)sc1C(N)=O)c1ccccc1C(F)(F)F" .
## Output 3.58

## Input Recall and state the measured neurite formation score for "Cc1cc2c(F)c(Oc3ncnn4cc(OC[C@@H](C)OC(=O)[C@H](C)N)c(C)c34)ccc2[nH]1" .
## Output 4.04

## Input Recall and state the measured neurite formation score for "COc1cc2ncnc(Nc3ccc(F)c(Cl)c3)c2cc1NC(=O)/C=C/CN1CCCCC1" .
## Output 4.88

## Input Recall and state the measured neurite formation score for "COc1cc2c(Nc3ccc(NC(=O)c4ccccc4)cc3)ncnc2cc1OCCCN1CCOCC1" .
## Output 4.58

## Input Recall and state the measured neurite formation score for "CC(C)(C)c1cnc(CSc2cnc(NC(=O)C3CCNCC3)s2)o1" .
## Output 4.38

## Input Recall and state the measured neurite formation score for "CC(C)n1nc(-c2cc3cc(O)ccc3[nH]2)c2c(N)ncnc21" .
## Output 4.76

## Input Recall and state the measured neurite formation score for "FC(F)c1nc2ccccc2n1-c1nc(N2CCOCC2)nc(N2CCOCC2)n1" .
## Output 4.21

## Input Recall and state the measured neurite formation score for "O=c1cc(N2CCOCC2)oc2c1ccc1ccccc12" .
## Output 4.42

## Input Recall and state the measured neurite formation score for "Cc1ccc(Nc2nccc(N(C)c3ccc4c(C)n(C)nc4c3)n2)cc1S(N)(=O)=O" .
## Output 3.71
